# target: Inadl_3, Q8NI35
# Sequence (Q8NI35 359-469): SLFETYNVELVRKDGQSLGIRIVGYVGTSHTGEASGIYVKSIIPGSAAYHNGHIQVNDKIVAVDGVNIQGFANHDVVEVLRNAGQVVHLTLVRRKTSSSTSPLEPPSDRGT
# method_summary: holdup assay
# Set-up: key: below the threshold = too weak to quantify, mostly under pKd 3.1 to 4
# particulars: plain residues with an end cap or a label only (N-terminal biotin on a linker: ado-ado)
metric: pKd

| binder | measured |
| --- | --- |
| MLSKQSESAI [FLVCR1, Q9Y5Y0] | below the threshold |
| TKGPRGPTRV [SAPCD1, Q5SSQ6] | below the threshold |
| RRLPGKETMA [GRIK2, Q13002] | below the threshold |

From: paper PMC9482650
